test.details: physchem
condition.info: water, drug concentration F: FB/AC, Table 2, drug with citric acid, room temperature
quantity.name: solubility (µg/mL)
Answer in µg/mL, number only, no unit symbol.

Which solubility reading was recorded for the compound CCN(CC)CCOc1ccc(C(=C(Cl)c2ccccc2)c2ccccc2)cc1 ?
6200

* * *

test.details: physchem
condition.info: water, drug concentration F: FB, Table 2, basic-type drug alone, room temperature
quantity.name: solubility (µg/mL)
Answer in µg/mL, number only, no unit symbol.

Which solubility reading was recorded for the compound CCN(CC)CCOc1ccc(C(=C(Cl)c2ccccc2)c2ccccc2)cc1 [Clomifene] ?
40

* * *

test.details: physchem
condition.info: water, drug concentration F: FB, Table 3, basic-type drug alone
This listing pairs compounds with measured solubility.
Answer in µg/mL, number only, no unit symbol.

O=c1[nH]c2ccccc2n1CCCN1CCC(n2c(=O)[nH]c3cc(Cl)ccc32)CC1 [Domperidone]	5

Here is the next item to consider.
Which solubility reading was recorded for the compound COc1ccc(CCN2CCC(Nc3nc4ccccc4n3Cc3ccc(F)cc3)CC2)cc1 [Astemizole] ?
4

Reference source for all entries: patent US5855916A
